target: T1, Rhesus macaque CD4-HIS (Acro Biosystems, Cat. CD4-C52H7) (rhesus macaque, UniProt P16003 26-390); assay: BLI Octet, mAb on anti-mouse Fc sensor, rhesus CD4-HIS 25-100 nM, 1:1 global fit;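 note: purified antibodies captured at 10 µg/mL, rhesus CD4 analyte run as a three-concentration serial dilution, irrelevant antibody as reference control, one kinetic constant set per antibody from global fitting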
T1 construct: Bought reagent; also called Rhesus CD4; rhesus CD4-HIS; not shown: His tag
T1 sequence (P16003 26-390 limits assumed): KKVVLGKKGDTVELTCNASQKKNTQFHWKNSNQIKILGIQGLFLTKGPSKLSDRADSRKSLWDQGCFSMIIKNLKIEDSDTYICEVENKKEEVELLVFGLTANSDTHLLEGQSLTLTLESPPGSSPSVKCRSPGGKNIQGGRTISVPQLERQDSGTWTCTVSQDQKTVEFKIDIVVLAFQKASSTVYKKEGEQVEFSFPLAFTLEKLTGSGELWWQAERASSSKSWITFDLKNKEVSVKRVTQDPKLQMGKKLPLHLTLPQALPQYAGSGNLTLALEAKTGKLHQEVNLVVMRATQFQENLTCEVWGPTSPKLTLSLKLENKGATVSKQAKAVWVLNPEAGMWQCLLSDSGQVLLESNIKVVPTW
measured.metric: koff (s⁻¹)

• 75110_04H17A (antibody, V domains shown, Tested as antibody purified from AlivaMab Mouse hybridoma supernatant (captured by anti-mouse IgG Fc)) VH: QVQLQESGPGLVKPSETLSLTCTVSGGSISTYYWSWIRQSAGKGLEWIGRIYTSERPNYNPSLKSRVTMSVDTSKNQFSLKLNSVSAADTAVYYCARELERPYYYGMDVWGQGTTVTVSS VL: DVQMTQSPSSLSASVGGRVTITCQASQDISNYLNWYQQKPGKAPKLLIYYASNLETGVPSRFSGSGSGTDFTFTISSLQPEDFATYYCQQYDNLPLTFGGGTKVEIK = 0.0002
• 75110_01G11A (antibody, V domains shown, Tested as antibody purified from AlivaMab Mouse hybridoma supernatant (captured by anti-mouse IgG Fc)) VH: EVQLVESGGGLVQPGGSLRLSCAASGFTFSSYDMHWVRQATGKGLEWVSTIGTAGDTYYPGSVKGRFTISRENARNSLFLQMNSLRAGDTAVYYCARGGDYYYGMDVWGQGTTVTVSS VL: EIVLTQSPGTLSLFPGERATLSCRASQNTYSSYLAWYQQKPGQAPRLLIYGASNRATGIPDRFSGSGSGTDFTLTISRLEPEDFAVYYCQQHGTSPFTFGPGTKVDIK = 0.0018
• 75110_05E13A (antibody, V domains shown, Tested as antibody purified from AlivaMab Mouse hybridoma supernatant (captured by anti-mouse IgG Fc)) VH: EVQLVESGGDLVKPGGSLRLSCAASGFSFSNAWMSWVRQAPGKGLEWVGRVESKTDGGTTDYAAPVKDRFTISRDDSKYTLYLQMNSLKTEDSAVYYCTIGGGFGLELYGFFDYWGQGTLVTVSS VL: DIQMTQSPSTLSASVGDRVTITCRASQSISSWLAWYQQKPGKAPMLLIYKASSLESGVPSRFSGSGSGTEFTLTISSLQPDDFATYYCLQYNSYYTFGQGTKLEIK = 0.0079
